System: human virus hRSV adapted to the growth in mouse lungs
Test: animal or person
Type: in vivo
Settings: 30 mg/kg orally once daily for 5 days from 24 h after infection; M ± SD, n = 6
Task for the reader: assign each of the following molecules its reported Body weight of the mice after infection with hRSV, Day 5.

>>> endpoint_result("O=C1CCCC(=O)N1CCc1nc2ccccc2s1 [Compound 7]")
"17.17 ± 0.26"
>>> endpoint_result("O=C1CCCC(=O)N1CCc1nccs1 [Compound 6]")
"16.47 ± 0.26"
>>> endpoint_result("O=C1CCCC(=O)N1CCC1CCCCN1 (stereo not shown) [Compound 122]")
"16.93 ± 0.32"

Now, please, on to the next molecule.
Task: Report Body weight of the mice after infection with hRSV, Day 5 for O=C1CCCC(=O)N1CCc1cccnc1 [Compound 10] please.
Result: 16.18 ± 0.29
